# PROTOCOL DETAILS: Confirmatory qHTS for VERO E6 Cytotoxicity Assay: Counterscreen for SARS-CoV-2 CPE Assay (AID 1508605); further: nearly all actives have a fitted effect of over 60% in size
# PARTICULARS: cell viability luminescence; series mostly up to 20 µM
Inconclusive results are not listed. Active and inactive are the calls of the source. The call rests on the fitted dose curve.
Returns: one label drawn from active, inactive

Previously resolved entries follow.
{"columns": ["MOLECULE", "QUALITATIVE LABEL"],
 "data": [
  ["Nc1nc(OC(c2ccc(-c3cccc(F)c3)cc2)C(F)(F)F)cc(-c2ccc(C[C@H](N)C(=O)O)cc2)n1 (some centres undefined)", "inactive"],
  ["CC(=O)c1c(OCCN2CCCCC2)c(OCCC(C)c2ccc(F)cc2)c2oc(C)nc2c1C (centres undefined)", "inactive"],
  ["C[C@H](NC(=O)[C@H](Cc1ccccc1)NC(=O)OCc1ccccc1)C(=O)CF", "inactive"],
  ["O=C1NC(=O)/C(=C\\c2ccc(-c3ccc(F)cc3)o2)S1", "inactive"],
  ["CCC(CC)COC(=O)[C@H](C)N[P@](=O)(OC[C@H]1O[C@@](C#N)(c2ccc3c(N)ncnn23)[C@H](O)[C@@H]1O)Oc1ccccc1", "inactive"],
  ["CONC(=O)Nc1ccc(-c2sc3c(c2CN(C)Cc2ccccc2)c(=O)n(-c2ccccc2)c(=O)n3Cc2c(F)cccc2F)cc1", "inactive"],
  ["CCc1ccccc1OC[C@@H](O)CN[C@H]1CCCc2ccccc21", "inactive"],
  ["CC(CN1c2ccccc2Sc2ccc(S(=O)(=O)N(C)C)cc21)N(C)C (centres undefined)", "inactive"]
]}

Please look at the following molecule next.
Test call, this molecule: `CCCCCCOc1ccc(C(=N)N(CCCC)CCCC)c2ccccc12`
active

###

# PROTOCOL DETAILS: Primary qHTS for inhibitors of MERS-S pseudo-typed particle cell entry (AID 1479149); further: nearly all actives have a fitted effect of over 60% in size
# PARTICULARS: MERS-S pseudotyped particle entry, luciferase; series mostly up to 57.1 µM
Inconclusive results are not listed. Calls of active or inactive are those of the source. The call rests on the fitted dose curve.
Returns: one label drawn from active, inactive

{"columns": ["MOLECULE", "QUALITATIVE LABEL"],
 "data": [
  ["Fc1cccc(Br)c1NC1=NCCN1", "inactive"]
]}

Test call, this molecule: `COc1ccc(-c2c(Cl)ncn2-c2ccc(S(N)(=O)=O)cc2)cc1F`
inactive

Can you check CC1(C)S[C@@H]2[C@H](NC(=O)[C@H](NC(=O)N3CCNC3=O)c3ccccc3)C(=O)N2C1C(=O)O (stereo partly drawn) next?
inactive

Can you check `CCC(=O)OCC(=O)[C@@]1(OC(=O)CC)[C@@H](C)C[C@H]2[C@@H]3CCC4=CC(=O)C=C[C@]4(C)[C@@]3(F)[C@@H](O)C[C@@]21C` next?
inactive

Can you check `COc1ccc(CNc2nc(N3CCC[C@H]3CO)ncc2C(=O)NCc2ncccn2)cc1Cl` next?
inactive

Can you check `C[C@H](NCCc1ccc(O)cc1)[C@H](O)c1ccc(O)cc1` next?
inactive

Can you check CCCC1CC(C(=O)NC(C(C)Cl)C2OC(SC)C(OP(=O)(O)O)C(O)C2O)N(C)C1 (stereo not drawn) next?
inactive

Can you check CCCC(=O)Nc1c(I)cc(I)c(CC(CC)C(=O)O)c1I (stereo not drawn) next?
inactive

Can you check `CC(C)n1c(/C=C/[C@H](O)C[C@H](O)CC(=O)O)c(-c2ccc(F)cc2)c2ccccc21` next?
inactive

Can you check CC[C@@H](C)C[C@@H](C)CCCCCCCCC(=O)NC1C[C@@H](O)[C@@H](NCCN)NC(=O)[C@@H]2[C@@H](O)CCN2C(=O)[C@H]([C@H](O)CCN)NC(=O)[C@H]([C@H](O)[C@@H](O)c2ccc(O)cc2)NC(=O)[C@@H]2C[C@@H](O)CN2C(=O)[C@H]([C@@H](C)O)NC1=O (stereo partly drawn) next?
inactive

Can you check O=C(O)[C@H]1OC(O)[C@H](O)[C@@H](O)[C@@H]1O (stereo partly drawn) next?
inactive

Can you check `CN=C(NC)NCc1ccccc1` next?
inactive

Can you check `Cn1nnc(-c2ccc(-c3ccc(N4C[C@@H](CO)OC4=O)cc3F)cn2)n1` next?
inactive

Can you check `C=CCOc1ccc(CC(=O)O)cc1Cl` next?
inactive

Can you check `CC1(C)S[C@@H]2[C@H](NC(=O)[C@H](NC(=O)N3CCN(S(C)(=O)=O)C3=O)c3ccccc3)C(=O)N2[C@H]1C(=O)O` next?
inactive

Can you check `C=CC(=O)Nc1cc(Nc2nccc(-c3cn(C)c4ccccc34)n2)c(OC)cc1N(C)CCN(C)C` next?
active

Can you check CC1=C(C(=O)OCCN(Cc2ccccc2)c2ccccc2)C(c2cccc([N+](=O)[O-])c2)C(P2(=O)OCC(C)(C)CO2)=C(C)N1 (stereo not drawn) next?
inactive

Can you check CCCCC(F)(F)C1(O)CCC2C(CC(=O)C2CCCCCCC(=O)O)O1 (stereo not drawn) next?
inactive
